Each entry below lists one item and its recorded IC50 value.
- assay target: MMP-13CD (catalytic domain of collagenase-3) (Homo sapiens, UniProt P45452)
- assay info: Thiopeptolide substrate hydrolysis inhibition assay, MMP-13CD
- Assay type: biochemical
- measurement conditions: Table I; thiopeptolide substrate, HEPES pH 7.0, 22° C.; read-out: MMP-13CD IC50
- Text: Thiopeptolide substrates show virtually no decomposition or hydrolysis at or below neutral pH in the absence of a matrix metalloproteinase enzyme.
Reply with just the number (in µM).

// solved cases for IC50 follow
>>> df
                                   molecule                              assay_target  meas_value
0  O=C(OCc1ccoc1)c1cc2c(=O)n(Cc3ccccc3)c(=O)[nH]c2s1 [Example 71]  MMP-13CD (catalytic domain of collagenase-3) (Homo sapiens, UniProt P45452)          13
1  COc1ccc(COC(=O)c2cc3c(=O)n(Cc4ccccc4)c(=O)n(C)c3s2)cc1 [Example 166]  MMP-13CD (catalytic domain of collagenase-3) (Homo sapiens, UniProt P45452)        0.92
2  Cn1c(=O)n(Cc2ccccc2)c(=O)c2cc(C(=O)OCc3ccccc3C(F)(F)F)sc21 [Example 169]  MMP-13CD (catalytic domain of collagenase-3) (Homo sapiens, UniProt P45452)          30

Q: Requested field: IC50. Item: Cn1c(=O)n(Cc2ccccc2)c(=O)c2cc(C(=O)NC3CC3)sc21 [Example 215]
Result: 24

Q: Requested field: IC50. Item: CCCCOC(=O)c1cc2c(=O)n(Cc3ccccc3)c(=O)n(C)c2s1 [Example 150]
Result: 13

Q: Requested field: IC50. Item: COc1ccc(CCCOC(=O)c2cc3c(=O)n(Cc4ccccc4)c(=O)n(C)c3s2)cc1 [Example 189]
Result: 4.9

Q: Requested field: IC50. Item: Cn1c(=O)n(Cc2cccc(C(F)(F)F)c2)c(=O)c2cc(C(=O)OCc3ccccc3)sc21 [Example 110]
Result: 0.42

Q: Requested field: IC50. Item: Cn1c(=O)n(Cc2ccc(C(=O)O)cc2)c(=O)c2cc(C(=O)NCc3ccncc3)sc21 [Example 51]
Result: 0.0205

Q: Requested field: IC50. Item: COc1ccc(CNC(=O)c2cc3c(=O)n(Cc4ccc(S(N)(=O)=O)cc4)c(=O)n(C)c3s2)cc1 [Example 217]
Result: 0.0785

Q: Requested field: IC50. Item: COc1ccc(CNC(=O)c2cc3c(=O)n(CCNS(=O)(=O)c4ccc(Cl)cc4)c(=O)n(C)c3s2)cc1 [Example 231]
Result: 2.9

Q: Requested field: IC50. Item: Cn1ccc2cc(COC(=O)c3cc4c(=O)n(Cc5ccccc5)c(=O)n(C)c4s3)ccc21 [Example 305]
Result: 46.7

Q: Requested field: IC50. Item: COc1cccc(CNC(=O)c2cc3c(=O)n(Cc4ccc(OC(C)(C)C(=O)OC(C)(C)C)cc4)c(=O)n(C)c3s2)c1 [Example 95]
Result: 0.103

Q: Requested field: IC50. Item: Cn1c(=O)n(Cc2ccc(C(=O)O)cc2)c(=O)c2cc(C(=O)NCCc3ccncc3)sc21 [Example 82]
Result: 3.7

Q: Requested field: IC50. Item: Cn1c(=O)n(Cc2ccccc2)c(=O)c2cc(C(=O)OCc3ccc(F)cc3)sc21 [Example 153]
Result: 0.004

Value source: patent US20030004172A1
